Tested on: SK-BR-3
ASSAY OVERVIEW: SRB colorimetric assay of cell growth and viability, SK-BR-3
Type: cell-based, human
CONDITION: 48 hours exposure
Where a SMILES comes first, the peptide text is derived from it. Bridges are numbered along the chain shown (N, C = ends). [ ]: non-standard residue; d: D form. The star is where a group is joined. d(aIle) = CC[C@H](C)[C@@H](N)C(=O)O; d(aThr) = C[C@@H](O)[C@@H](N)C(=O)O; Hexanoyl(5-Me) = CC(C)CCCC(=O)*; Orn = NCCC[C@H](N)C(=O)O; Dhb = C/C=C(\N)C(=O)O
READOUT: TGI SK-BR-3 (Molar)
Write the number in Molar without appending the unit.

COMPOUND | MEASUREMENT
C/C=C1\NC(=O)[C@H](Cc2ccccc2)NC(=O)[C@@H](C(C)C)NC(=O)[C@@H](C(C)C)NC(=O)[C@H](NC(=O)[C@H](NC(=O)[C@H](CCCN)NC(=O)[C@H]2CCCN2C(=O)[C@H](NC(=O)[C@@H](NC(=O)[C@@H](NC(=O)[C@H](NC(=O)CCCC(C)C)C(C)C)[C@@H](C)O)C(C)C)C(C)C)C(C)C)[C@@H](C)OC(=O)[C@H](C(C)C)NC1=O [Compound 12, [D-Val^5, D-Val^7]-KF] ({Hexanoyl(5-Me)}-[dV]TV[dV][dP][Orn][dV][d(aThr)][dV][dV]F[Dhb]V; ester 8-C) | 3.06E−06

Shifting focus to the compound that follows.
Query: Data request, read-out TGI SK-BR-3, for C/C=C1\NC(=O)[C@H](Cc2ccccc2)NC(=O)[C@@H](C(C)C)NC(=O)[C@@H]([C@@H](C)CC)NC(=O)[C@H](NC(=O)[C@H](NC(=O)[C@H](CCCN)NC(=O)[C@H]2CCCN2C(=O)[C@H](NC(=O)CNC(=O)[C@@H](NC(=O)[C@H](NC(=O)CCCC(C)C)C(C)C)[C@@H](C)O)C(C)C)[C@@H](C)CC)[C@@H](C)OC(=O)[C@H](C(C)C)NC1=O [Compound 42, [Gly^11]-KF] ({Hexanoyl(5-Me)}-[dV]TG[dV][dP][Orn][d(aIle)][d(aThr)][d(aIle)][dV]F[Dhb]V; ester 8-C)
Response: 6.96E−06

---

// reported TGI DU-145 per item
System: DU-145
ASSAY OVERVIEW: SRB colorimetric assay of cell growth and viability, DU-145
Format: cell-based, human
CONDITION: 48 hours exposure, SRB
Where a SMILES comes first, the peptide text is derived from it. Bridges are numbered along the chain shown (N, C = ends). [ ]: non-standard residue; d: D form. The star is where a group is joined. d(aIle) = CC[C@H](C)[C@@H](N)C(=O)O; d(aThr) = C[C@@H](O)[C@@H](N)C(=O)O; hCha = N[C@@H](CCC1CCCCC1)C(=O)O; Hexanoyl(5-Me) = CC(C)CCCC(=O)*; Orn = NCCC[C@H](N)C(=O)O; Dhb = C/C=C(\N)C(=O)O

Worked cases, answers included:
COMPOUND | EXPERIMENTAL TARGET | MEASUREMENT
C/C=C1\NC(=O)[C@H](CCC2CCCCC2)NC(=O)[C@@H](C(C)C)NC(=O)[C@@H]([C@@H](C)CC)NC(=O)[C@H](NC(=O)[C@H](NC(=O)[C@H](CCCN)NC(=O)[C@H]2CCCN2C(=O)[C@H](NC(=O)[C@@H](NC(=O)[C@@H](NC(=O)[C@H](NC(=O)CCCC(C)C)C(C)C)[C@@H](C)O)C(C)C)C(C)C)[C@@H](C)CC)[C@@H](C)OC(=O)[C@H](C(C)C)NC1=O [Compound 63] ({Hexanoyl(5-Me)}-[dV]TV[dV][dP][Orn][d(aIle)][d(aThr)][d(aIle)][dV][hCha][Dhb]V; ester 8-C) | DU-145 | 4.25E−07 Molar
C/C=C1\NC(=O)[C@H](Cc2ccccc2)NC(=O)[C@@H](C(C)C)NC(=O)[C@@H]([C@@H](C)CC)NC(=O)[C@H](NC(=O)[C@H](NC(=O)[C@H](CCCN)NC(=O)[C@H]2CCCN2C(=O)[C@H](NC(=O)[C@@H](NC(=O)[C@@H](NC(=O)[C@H](NC(=O)CC[C@@H](C)CC)C(C)C)[C@@H](C)OC(=O)C(F)(F)F)C(C)C)C(C)C)[C@@H](C)CC)[C@@H](C)OC(=O)[C@H](C(C)C)NC1=O | DU-145 | 1.51E−06 Molar
C/C=C1\NC(=O)[C@H](Cc2ccccc2)NC(=O)[C@@H](C(C)C)NC(=O)[C@@H]([C@@H](C)CC)NC(=O)[C@H](NC(=O)[C@H](NC(=O)[C@H](CCCN)NC(=O)[C@H]2CCCN2C(=O)[C@H](NC(=O)[C@@H](NC(=O)[C@@H](NC(=O)[C@@H](C(C)C)N(CCCCCCC)CCCCCCC)[C@@H](C)O)C(C)C)C(C)C)[C@@H](C)CC)[C@@H](C)OC(=O)[C@H](C(C)C)NC1=O | DU-145 | 6.40E−06 Molar
C/C=C1\NC(=O)[C@H](Cc2c[nH]c3ccccc23)NC(=O)[C@@H](C(C)C)NC(=O)[C@@H]([C@@H](C)CC)NC(=O)[C@H](NC(=O)[C@H](NC(=O)[C@H](CCCN)NC(=O)[C@H]2CCCN2C(=O)[C@H](NC(=O)[C@@H](NC(=O)[C@@H](NC(=O)[C@H](NC(=O)CCCC(C)C)C(C)C)[C@@H](C)O)C(C)C)C(C)C)[C@@H](C)CC)[C@@H](C)OC(=O)[C@H](C(C)C)NC1=O [Compound 68, [Trp^3]-KF] ({Hexanoyl(5-Me)}-[dV]TV[dV][dP][Orn][d(aIle)][d(aThr)][d(aIle)][dV]W[Dhb]V; ester 8-C) | DU-145 | 1.21E−06 Molar

Query: Data request, read-out TGI DU-145, for `C/C=C1\NC(=O)[C@H](Cc2ccccc2)NC(=O)[C@@H](C(C)C)NC(=O)[C@@H]([C@@H](C)CC)NC(=O)[C@H](NC(=O)[C@H](NC(=O)[C@H](CCCNC(=O)C(F)(F)F)NC(=O)[C@H]2CCCN2C(=O)[C@H](NC(=O)[C@@H](NC(=O)[C@@H](NC(=O)[C@H](NC(=O)CC[C@@H](C)CC)C(C)C)[C@@H](C)O)C(C)C)C(C)C)[C@@H](C)CC)[C@@H](C)OC(=O)[C@H](C(C)C)NC1=O`
Response: 1.94E−06 Molar

Data provenance is patent US20070117743A1.
